study.target: FKBP12 (Homo sapiens, UniProt P62942)
Sequence (P62942 whole entry, species assumed): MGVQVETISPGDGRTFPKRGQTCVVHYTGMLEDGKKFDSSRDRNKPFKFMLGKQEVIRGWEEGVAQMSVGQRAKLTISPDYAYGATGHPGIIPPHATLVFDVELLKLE
experimental.details: rotamase inhibition assay (N-succinyl-Ala-Ala-Pro-Phe-p-nitroanilide, chymotrypsin-coupled)
Assay type: biochemical
study.conditions: apparent Ki; NI = no inhibition at the concentrations tested; read-out: Rotamase Ki(app)
In this section we review reported log10 of Ki values for a set of molecules.
attribute.measured: log10 of Ki (log10 of the value in µM)

molecule | study.target | log10 of Ki
COc1cc(C(=O)C(=O)N2C3CCCC2C2=CN(CC4CC4)C(=O)CN2C3=O)cc(OC)c1OC (centres unmarked) [Compound 122] | FKBP12 (Homo sapiens, UniProt P62942) | -0.82
COc1cc(OC)cc(N2C=C3C4CCCC(C(=O)N3CC2=O)N4C(=O)C(=O)C(C)(C)c2ccccc2)c1 (centres unmarked) [Compound 155] | FKBP12 (Homo sapiens, UniProt P62942) | 0.08
CCC(C)(C)C(=O)C(=O)N1C2CCCC1C(=O)N([C@H]1CCC[C@@H]1OCc1ccccc1)C2 (some centres unmarked) [Compound 78] | FKBP12 (Homo sapiens, UniProt P62942) | 0.61
CCC(C)(C)C(=O)C(=O)N1C2CCCC1C(=O)N(CCCCc1ccccc1)C2=O [Compound 36] | FKBP12 (Homo sapiens, UniProt P62942) | -0.35
CCC(C)(C)C(=O)C(=O)N1C2CCCC1C(=O)N(C1CCCCC1)C2 (centres unmarked) [Compound 57] | FKBP12 (Homo sapiens, UniProt P62942) | 1.87
COc1cc(C(=O)C(=O)N2C3CCCC2C2OCC(COCc4ccccc4)N2C3=O)cc(OC)c1OC (centres unmarked) [Compound 42] | FKBP12 (Homo sapiens, UniProt P62942) | 0.34
COCOCC(C)(C)C(=O)C(=O)N1C2CCCC1C(=O)N(CCCCc1ccccc1)C2 (centres unmarked) [Compound 63] | FKBP12 (Homo sapiens, UniProt P62942) | 0.49
COc1cccc2c1CCN1C(=O)C3CCCC(C21)N3C(=O)C(=O)c1cc(OC)c(OC)c(OC)c1 (centres unmarked) [Compound 12] | FKBP12 (Homo sapiens, UniProt P62942) | -1.57

###

study.target: FKBP12 (Homo sapiens, UniProt P62942)
experimental.details: rotamase inhibition assay (N-succinyl-Ala-Ala-Pro-Phe-p-nitroanilide, chymotrypsin-coupled)
Format: biochemical
study.conditions: apparent Ki; NI = no inhibition at the concentrations tested; read-out: Rotamase Ki(app)
attribute.measured: log10 of Ki (log10 of the value in nM)

molecule | log10 of Ki
COc1cc(C(=O)C(=O)N2C3CCCC2C(=O)N(CCCCCc2ccccc2)C3=O)cc(OC)c1OC [Compound 38] | 2.47
C=CCC(CC=C)C(=O)OC[C@@H](CN1CC2CCCC(C1=O)N2C(=O)C(=O)C1(COC(C)=O)CCCC1)OCc1ccccc1 (stereo partly drawn) [Compound 109] | 1.69
COc1cc(C(=O)C(=O)N2C3CCCC2C(=O)N([C@H]2CCC[C@@H]2OCc2ccccc2)C3)cc(OC)c1OC (stereo partly drawn) [Compound 72] | 2.38
CCC(C)(C)C(=O)C(=O)N1C2CCCC1C1=CN(CC3CC3)C(=O)CN1C2=O (stereo not drawn) [Compound 123] | 3.08
COc1ccc2c(c1)C1C3CCCC(C(=O)N1CC2)N3C(=O)C(=O)C1(COC(C)=O)CCCC1 (stereo not drawn) [Compound 82] | 3.48
CCC(CC)C(=O)C(=O)N1C2CCCC1C(=O)N(CCCCc1ccccc1)C2 (stereo not drawn) [Compound 68] | 3.40
COC1(C(=O)C(=O)N2[C@@H]3CCC[C@H]2C(=O)N2Cc4c(cc(C(F)(F)F)cc4C(F)(F)F)C[C@@H]32)CCCC1 [Compound 137] | 3.99
COc1cc(C(=O)C(=O)N2C3CCCC2C(OC)N(CCCCc2ccccc2)C3=O)cc(OC)c1OC (stereo not drawn) [Compound 37] | 2.35
COc1cc(C(=O)C(=O)N2C3CCCC2C2=CN(C4CCCC4)C(=O)CN2C3=O)cc(OC)c1OC (stereo not drawn) [Compound 117] | 1.92
COc1cc(C(=O)C(=O)N2C3CCCC2C(=O)N([C@H]2CCC[C@@H]2OCc2ccccc2)C3)cc(OC)c1OC (stereo partly drawn) [Compound 71] | 3.67
CC(=O)OCC1(C(=O)C(=O)N2C3CCCC2C(=O)N(CCCCc2ccccc2)C3)CCCCC1 (stereo not drawn) [Compound 86] | 3.11
COc1ccc(CN2C(=O)C3CCCC(C2C#N)N3C(=O)C(=O)c2cc(OC)c(OC)c(OC)c2)cc1 (stereo not drawn) [Compound 80] | 3.26
COC[C@@H]1CC[C@@H](C)[C@](O)(C(=O)C(=O)N2C3CCCC2C2=CN(C4CCCC4)C(=O)CN2C3=O)C1 (stereo partly drawn) [Compound 140] | 4.00
CC(=O)OCC1(C(=O)C(=O)N2C3CCCC2C2=CN(CC4CC4)C(=O)CN2C3=O)CCCC1 (stereo not drawn) [Compound 124] | 2.58
CCOC1C2CCCC(C(=O)N1Cc1ccc(OC)cc1)N2C(=O)C(=O)c1cc(OC)c(OC)c(OC)c1 (stereo not drawn) [Compound 79] | 2.85
